From: PubChem BioAssay (NCI)

TGI overview
test system: HCC-2998 colon; experiment: NCI tumour cell line growth inhibition, 48 h

These recorded examples may help you get a feel for the data.
>>> result("CCc1n[nH]c(=O)n1NC(=O)c1ccccc1C(=O)O")
"> 100 µM"
>>> result("CC([C@H]1CCC2C3CCC4CC5(CC[C@]4(C)C3CC[C@@]21C)c1ccccc1C(=O)N5C)N(C)C (stereo not given in full)")
"> 100 µM"
>>> result("O=c1[nH]c(Nc2cccc(Br)c2)nc2nc[nH]c12")
"> 100 µM"
>>> result("O=S(=O)(NCCCNc1cc(-c2cn(-c3ccccc3)nc2-c2cccc(O)c2)ccn1)c1cccc2ccccc12")
"3.45 µM"
>>> result("COC(OC)(c1ccccc1)C(I)I")
"> 58.3 µM"

Problem: Which measured TGI value corresponds to CC1=C2C(=O)C(C)(C)C=C2C(=O)[C@](C)(O)C12CC2 ?
Solution: > 1 µM

Problem: Given the compound COC1OC(CBr)C(OC(c2ccccc2)(c2ccccc2)c2ccccc2)C(OC(c2ccccc2)(c2ccccc2)c2ccccc2)C1OC(c1ccccc1)(c1ccccc1)c1ccccc1 (stereo not given) , what is its reported TGI?
Solution: > 100 µM

Problem: Bench note: what TGI did COc1ccc(N=C2C(=Nc3ccc(OC)cc3)N(S(=O)(=O)c3ccccc3)C(=S)N2c2ccc(OC)cc2)cc1 show?
Solution: > 100 µM

Problem: TGI for C/C(=N\NS(=O)(=O)c1ccc(C)cc1)c1c(O)cc(C)oc1=O ?
Solution: > 100 µM

Problem: I am curious: what TGI value has been reported for Cc1ccc(Nc2sc(C)cc2C#N)c([N+](=O)[O-])c1 ?
Solution: > 100 µM

---

system: PC-3 prostate; assay: NCI tumour cell line growth inhibition, 48 h; in the data active = GI50 below about 0.43 µM; inactive = the rest
Select the correct class. Options are YES = active, NO = inactive and nothing else.

A selection of reference data follows.
>>> cat("O=C1/C(=C/c2ccccc2)CN(CCC(=O)N2C/C(=C\\c3ccccc3)C(=O)/C(=C/c3ccccc3)C2)C/C1=C\\c1ccccc1")
"NO"
>>> cat("C=C1SC(=Nc2ccccc2Cl)N(C(=O)c2sc3ccccc3c2Cl)C1(C)C")
"NO"
>>> cat("COc1cc(C)[nH]c(=O)c1CN1CCc2c(Cl)cc([C@H](OC)C3COC3)c(Cl)c2C1=O")
"NO"
>>> cat("CN(C)Cc1cccc(CN(C)C)[c]1[Sn]([Br])([c]1ccccc1)[c]1ccccc1")
"NO"
>>> cat("CNC(=O)c1cncc(/C=C/c2c(C)cccc2C)c1")
"NO"
>>> cat("NC(=O)c1cc(Cl)ccc1NC(=O)c1ccccc1-c1ccccc1")
"NO"
>>> cat("COc1ccccc1N1CCN(C(=O)c2ccc(NS(=O)(=O)c3cccc4cccnc34)cc2)CC1")
"NO"
>>> cat("O=C(Nc1ccc(Cl)cc1)c1cc2cc(F)ccc2cc1O")
"NO"

Problem: What did the test return for Cc1cccc2c1NC(=O)[C@@]21[C@H](C(=O)c2ccccc2)[C@]2(C(=O)Nc3ccccc32)[C@H]2CCCN21 ?
Solution: NO

Problem: # lookup: test call for CCn1cc(C(=O)N/N=C/c2cccc(F)c2)c(=O)c2cc(F)c(N3CCNC(C)C3)c(F)c21 (stereo not drawn)
Solution: NO

Problem: Please state the recorded outcome for this compound: COc1ccc(-c2csc(NC(=O)N3CCN(c4cc5c(cc4F)c(=O)c(C(=O)O)cn5C4CC4)CC3)n2)cc1
Solution: NO

Problem: Outcome logged for CCOC(=O)c1c(C)[nH]c(/C=C2\N=C(c3ccc[nH]3)C=C2OC)c1C in this assay:
Solution: YES

Problem: I would be grateful if you could indicate the recorded call for COc1ccc(Cl)cc1NC(=O)c1c(NC(=O)C(F)(F)C(F)(F)F)sc2c1CCCCC2 .
Solution: NO

---

test system: COLO 205 colon; test: NCI tumour cell line growth inhibition, 48 h
Reported GI50 values for a set of molecules

Worked examples, 5 molecules total:
>>> result("CN(C)CCCN=c1cc2c(=O)n(CCCN(C)C)c(=O)c3c(NCCCN(C)C)cc4c(O)n(CCCN(C)C)c(=O)c1c4c3-2")
"1030 nM"
>>> result("O=C1c2cccc3cc([N+](=O)[O-])cc(c23)C(=O)N1CCN1CCCC1")
"648 nM"
>>> result("O=C1CCC2=C3C4CCCCC4C(=O)C4CCCC(OC2C1)C34 (stereo unspecified)")
"17700 nM"
>>> result("Oc1ccc2ccccc2c1N=Nc1ccccn1")
"431 nM"
>>> result("CCn1cc(C(=O)N/N=C/c2cccc(F)c2)c(=O)c2cc(F)c(N3CCNC(C)C3)c(F)c21 (stereo unspecified)")
"1710 nM"

Problem: Consider the molecule shown here: O=C(NC1CCN(Cc2ccccc2)CC1)c1cc(C(=O)NC2CCN(Cc3ccccc3)CC2)cc(C(=O)NC2CCN(Cc3ccccc3)CC2)c1 What is its recorded GI50?
Solution: 3620 nM

Problem: Which GI50 value is on record for N#C/C(=C/C=C/c1ccccc1)S(=O)c1ccccc1 (stereo unspecified) ?
Solution: 482 nM

Problem: Which GI50 value belongs to O=C1/C(=C/c2ccccc2)CN(CCC(=O)N2C/C(=C\c3ccccc3)C(=O)/C(=C/c3ccccc3)C2)C/C1=C\c1ccccc1 ?
Solution: 12400 nM

Problem: What value of measured GI50 is listed for COc1ccc(Cl)cc1NC(=O)c1c(NC(=O)C(F)(F)C(F)(F)F)sc2c1CCCCC2 ?
Solution: 1300 nM

Problem: State the recorded GI50 for this entry: CNC(=O)c1cncc(/C=C/c2c(C)cccc2C)c1
Solution: > 22600 nM

Problem: What value of GI50 has been reported for the following molecule? COc1cc(/C=C2\CN(S(=O)(=O)c3ccc(C)cc3)C/C(=C\c3cc(CN4CCCCC4)c(O)c(OC)c3)C2=O)cc(CN2CCCCC2)c1O
Solution: 1680 nM

---

system: 786-0 renal; test: NCI tumour cell line growth inhibition, 48 h
metric: TGI

>>> result("O=C(N/C(=C\\c1ccc([N+](=O)[O-])cc1)c1nc2ccc(Cl)cc2[nH]1)c1ccccc1")
"53 µM"
>>> result("O=C(NC1CCN(Cc2ccccc2)CC1)c1cc(C(=O)NC2CCN(Cc3ccccc3)CC2)cc(C(=O)NC2CCN(Cc3ccccc3)CC2)c1")
"> 50 µM"
>>> result("CCn1c(-c2ccc(C)cc2)cs/c1=N\\C(P(=O)(O)O)P(=O)(O)O")
"> 100 µM"
>>> result("CCN(CC)C(=O)CNC(=O)OC(C)(C)C")
"> 100 µM"
>>> result("O=C(CCc1ccccc1CO)NCCc1ccccc1")
"> 100 µM"
>>> result("O=c1[nH]c(Nc2cccc(Br)c2)nc2nc[nH]c12")
"> 100 µM"

Problem: Request body: readout TGI, system 786-0 renal, query COc1cc([C@@H]2c3cc4c(cc3[C@H](OC(C)=O)[C@H]3COC(=O)[C@H]23)OCO4)cc(OC)c1OC . Return the value.
Solution: > 100 µM

Problem: Form field - read-out: TGI; system: 786-0 renal; submitted item: Fc1cc(-c2ncc(Cl)cc2Cl)c2cccccc1-2
Solution: > 100 µM

Problem: Provide value of TGI for this record tested with 786-0 renal: COC1(OC)C2(Cl)C(Cl)=C(Cl)C1(Cl)C1COCC12 (stereo unspecified)
Solution: > 100 µM

Problem: What reported TGI corresponds to CC1Cc2c(N)nc(N3CCOCC3)nc2NC1=O (stereo unspecified) on 786-0 renal?
Solution: > 100 µM

Problem: Provide value of TGI for this record tested with 786-0 renal: C/C(=N\NS(=O)(=O)c1ccc(C)cc1)c1c(O)cc(C)oc1=O
Solution: > 100 µM

---

tested on: UACC-62 melanoma; assay: NCI tumour cell line growth inhibition, 48 h
metric: TGI

Below: 3 compounds and their reported TGI.
>>> result("Cc1[nH]c2ccccc2c1C1CC(=O)NC1=O (stereo not given)")
"> 100 µM"
>>> result("COc1ccc(N=C2C(=Nc3ccc(OC)cc3)N(S(=O)(=O)c3ccccc3)C(=S)N2c2ccc(OC)cc2)cc1")
"> 100 µM"
>>> result("S=C(c1c[nH]c2ccccc12)N1CCN(c2ccccc2)CC1")
"> 100 µM"

Problem: Need TGI of Fc1cc(-c2ncc(Cl)cc2Cl)c2cccccc1-2 , thanks.
Solution: > 100 µM

Problem: Item C=Cc1cc2c(cc1O)CC[C@@H]1[C@@H]2CC[C@]2(C)[C@@H](O)CC[C@@H]12 has what recorded TGI?
Solution: 8.65 µM

---

test system: SK-MEL-28 melanoma; assay: NCI tumour cell line growth inhibition, 48 h
In this section we review reported TGI values for a set of compounds.

Reference set (5 entries):
>>> result("CC(C)CC1[C@@H](OCc2ccccc2)COS(=O)(=O)N1Cc1ccccc1 (some centres undefined)")
"> 100 µM"
>>> result("Nn1c(SCC(=O)NCc2ccccc2)nc2ccccc2c1=O")
"> 100 µM"
>>> result("CN(C)c1ccc2cc(-c3cc4c(oc3=O)-c3ccccc3OC4O)c(=O)oc2c1 (centres undefined)")
"> 25 µM"
>>> result("CCCCNC(=O)Oc1ccc2c(=O)c3sc4c(=O)c5ccccc5c(=O)c4c3c(=O)c2c1")
"0.524 µM"
>>> result("CC(NC(=O)C(N)CC(=O)O)NC(=O)N1CCOCC1 (centres undefined)")
"> 100 µM"

Problem: What TGI value was documented for this compound, C/C(=N\NS(=O)(=O)c1ccc(C)cc1)c1c(O)cc(C)oc1=O ?
Solution: > 100 µM

Problem: So what does the record say about TGI for COC(=O)c1cc2c3c(cc(O)c2[nH]1)N(C(=O)C1Cc2cc(OC)c(OC)c(OC)c2N1)CC3CCl (centres undefined) ?
Solution: < 0.01 µM

Problem: TGI for CCOC(=O)/C=C(\N=P(c1ccccc1)(c1ccccc1)c1ccccc1)C(F)(F)C(F)(F)C(F)(F)C(F)(F)C(F)(F)F ?
Solution: > 100 µM

Problem: What value of TGI has been recorded for this entry: CCC(O)(c1ccc(OC)cc1)C(c1ccc(OCc2ccccc2)cc1)c1ccc(OCc2ccccc2)cc1 (centres undefined)
Solution: > 100 µM
